# target_or_system: cynomolgus monkey DLL4 extracellular domain (cynomolgus monkey)
# method_description: Biacore SPR
measure_name: koff (s⁻¹)
Record the value in s⁻¹, omitting the unit from your answer.

{"binder": "h1A11.F5 (antibody, V domains shown) VH: EVQLVESGGGLVQPGGSLRLSCAASGFTFRHFPMAWVRQAPGKGLEWVATISSSDAWPSYRDSVKGRFTISRDNAKNSLYLQMNSLRAEDTAVYYCARGYYNSPFAYWGQGTLVTVSS VL: DIQMTQSPSSLSASVGDRVTITCRASQEIYRNLAWYQQKPGKSPKLLIFDTSVLADGVPSRFSGSGSGTDSTLTISSLQPEDFATYYCQQYTYYPPTFGQGTKLEIK", "unit_tag": "s⁻¹", "test_result": "2e-05"}
{"binder": "h1A11.E12 (antibody, V domains shown) VH: EVQLVESGGGLVQPGGSLRLSCAASGFTFRYFPMAWVRQAPGKGLEWVATISGSDEWPNYRDSVKGRFTISRDNAKNSLYLQMNSLRAEDTAVYYCARGYYNSPFAFWGQGTLVTVSS VL: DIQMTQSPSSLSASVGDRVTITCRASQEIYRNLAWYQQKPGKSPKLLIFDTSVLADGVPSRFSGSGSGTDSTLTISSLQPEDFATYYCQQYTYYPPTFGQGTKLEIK", "unit_tag": "s⁻¹", "test_result": "3.84e-05"}

koff for h1A11.A2 (antibody, V domains shown) VH: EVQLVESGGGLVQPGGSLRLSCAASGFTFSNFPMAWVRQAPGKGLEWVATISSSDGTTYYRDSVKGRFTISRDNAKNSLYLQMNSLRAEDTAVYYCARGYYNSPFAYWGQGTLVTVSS VL: DIQMTQSPSSLSASVGDRVTITCRASQDIYINLAWYQQKPGKSPKLLIFDTNDLADGVPSRFSGSGSGTDFTLTISSLQPEDFATYYCQQYDYVPPTFGQGTKLEIK is 0.000527

koff for h1A11.G3 (antibody, V domains shown) VH: EVQLVESGGGLVQPGGSLRLSCAASGFTFRYFPMSWVRQAPGKGLEWVASISGSDGWASYRDSVKGRFTISRDNAKNSLYLQMNSLRAEDTAVYYCARGYYNSPFAYWGQGTLVTVSS VL: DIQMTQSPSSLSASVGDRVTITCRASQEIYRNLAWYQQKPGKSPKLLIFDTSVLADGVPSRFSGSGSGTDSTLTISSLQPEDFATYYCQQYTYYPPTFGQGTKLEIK is 1.73e-05

koff for h1A11.A6 (antibody, V domains shown) VH: EVQLVESGGGLVQPGGSLRLSCAASGFTFRHFPMAWVRQAPGKGLEWVATISSSDAWPSYRDSVKGRFTISRDNAKNSLYLQMNSLRAEDTAVYYCSRGYYNSPFAYWGQGTLVTVSS VL: DIQMTQSPSSLSASVGDRVTITCRASEDIYSNLAWYQQKPGKAPKLLIYDTNNLADGVPSRFSGSGSGTDFTLTISSLQPEDFATYYCQQYNNYPPTFGQGTKLEIK is 2.1e-05

From: patent US20160031986A1
